Here the recorded MIC is given for each entry.
system: Enterococcus faecium; assay: Antibacterial activity against Enterococcus faecium 08-7 after 18 to 24 hrs by twofold serial dilution method; format: functional

Could you please provide reported MIC for CO/N=C1\CN(c2nc3c(cc2F)c(=O)c(C(=O)O)cn3C2CC2)CC1/C(N)=N\O (stereo not drawn) ? Thanks!
> 128 µg/mL

Give the value of MIC reported for the following: CCO/N=C(/N)C1CN(c2c(F)cc3c(=O)c(C(=O)O)cn(CC)c3c2F)C/C1=N\OC (stereo not drawn)
> 128 µg/mL

Further cases:
Give me measured MIC, please, for this compound: CCO/N=C1\CN(c2c(F)cc3c(=O)c(C(=O)O)cn4c3c2OC[C@@H]4C)CC1/C(N)=N\OCC (stereo partly drawn)
> 128 µg/mL

Let me know recorded MIC for CO/N=C1\CN(c2c(F)cc3c(=O)c(C(=O)O)cn(C4CC4)c3c2F)CC1/C(N)=N\OC (stereo not drawn) , thanks.
64 µg/mL

Tell me measured MIC for CCO/N=C1\CN(c2nc3c(cc2F)c(=O)c(C(=O)O)cn3-c2ccc(F)cc2F)CC1/C(N)=N\OCC (stereo not drawn) please.
128 µg/mL
